- experimentalTarget: hERG channel (Homo sapiens, UniProt Q12809)
- Sequence (Q12809 whole entry): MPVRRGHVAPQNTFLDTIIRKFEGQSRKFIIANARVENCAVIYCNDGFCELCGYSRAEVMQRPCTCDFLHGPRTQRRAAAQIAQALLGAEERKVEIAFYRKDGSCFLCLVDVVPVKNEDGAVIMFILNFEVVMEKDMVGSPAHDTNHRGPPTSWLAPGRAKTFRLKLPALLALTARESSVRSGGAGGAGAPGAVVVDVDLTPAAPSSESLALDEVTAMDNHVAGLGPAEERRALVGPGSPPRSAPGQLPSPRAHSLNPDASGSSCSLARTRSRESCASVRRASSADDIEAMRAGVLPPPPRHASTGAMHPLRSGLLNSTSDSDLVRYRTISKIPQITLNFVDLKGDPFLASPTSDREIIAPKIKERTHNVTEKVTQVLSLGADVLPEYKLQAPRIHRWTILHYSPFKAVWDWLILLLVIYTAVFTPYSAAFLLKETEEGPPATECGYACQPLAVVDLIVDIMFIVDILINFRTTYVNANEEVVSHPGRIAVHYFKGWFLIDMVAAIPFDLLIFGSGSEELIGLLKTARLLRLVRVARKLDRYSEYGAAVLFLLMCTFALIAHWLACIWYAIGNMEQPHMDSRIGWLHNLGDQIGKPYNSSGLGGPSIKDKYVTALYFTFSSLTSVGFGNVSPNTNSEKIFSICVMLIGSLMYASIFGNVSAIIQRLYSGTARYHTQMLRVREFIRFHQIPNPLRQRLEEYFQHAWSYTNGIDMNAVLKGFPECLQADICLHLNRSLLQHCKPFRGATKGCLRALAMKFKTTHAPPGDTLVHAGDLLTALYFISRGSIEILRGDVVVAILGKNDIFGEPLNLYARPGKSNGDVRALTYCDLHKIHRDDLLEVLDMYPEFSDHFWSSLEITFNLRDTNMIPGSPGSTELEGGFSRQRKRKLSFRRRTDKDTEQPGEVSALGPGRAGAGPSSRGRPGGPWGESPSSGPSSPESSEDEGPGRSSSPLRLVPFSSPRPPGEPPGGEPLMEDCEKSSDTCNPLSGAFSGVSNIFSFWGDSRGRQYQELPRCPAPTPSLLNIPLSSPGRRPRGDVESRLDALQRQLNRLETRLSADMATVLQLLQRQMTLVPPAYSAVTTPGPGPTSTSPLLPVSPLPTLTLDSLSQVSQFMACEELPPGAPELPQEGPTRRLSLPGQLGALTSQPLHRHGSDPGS
- protocolNotes: hERG channel current in HEK293 cells, automated patch clamp
- runParameters: HEK-293 cells stably expressing hERG, whole-cell patch clamp, 0.3-30 μM
metricName: IC50 (µM)

1. C=CCCN(C)Cc1c[nH]c(=O)cc1-c1cnc2c(N[C@@](C)(CO)CCCC)nc(N)nc2c1 | 24.7
2. CCCC[C@](C)(CO)Nc1nc(N)nc2cc(F)cnc12 [Comparative compounds, reference compound] | 3.3

###

- experimentalTarget: CYP3A4 (Homo sapiens)
- Construct: from tissue; host or cells: human liver microsomes
- Sequence (P08684 whole entry): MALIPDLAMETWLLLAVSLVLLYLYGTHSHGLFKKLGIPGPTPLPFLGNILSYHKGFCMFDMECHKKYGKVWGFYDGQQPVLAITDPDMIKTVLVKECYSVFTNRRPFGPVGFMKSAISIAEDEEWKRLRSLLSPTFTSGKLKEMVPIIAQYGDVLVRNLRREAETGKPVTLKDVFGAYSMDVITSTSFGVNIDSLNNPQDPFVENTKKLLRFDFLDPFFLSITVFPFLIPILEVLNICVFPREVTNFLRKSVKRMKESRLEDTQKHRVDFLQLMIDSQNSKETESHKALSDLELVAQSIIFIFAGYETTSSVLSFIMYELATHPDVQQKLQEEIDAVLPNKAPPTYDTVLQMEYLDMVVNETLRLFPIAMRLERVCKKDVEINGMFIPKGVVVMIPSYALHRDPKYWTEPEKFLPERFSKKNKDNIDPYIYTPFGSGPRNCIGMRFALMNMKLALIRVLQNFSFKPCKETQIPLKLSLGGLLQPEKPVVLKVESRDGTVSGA
- protocolNotes: Inhibition of human liver microsomal CYP3A4
- Assay type: in vitro ADME
- runParameters: probe Midazolam; human liver microsomes, 10 μM test substance, substrate Midazolam; read-out: Relative inhibition rate (%) CYP3A4 (Midazolam)
# inhibition at 10 µM >= 20% gives class 1, anything below gives class 0

1. CCCCN(C)Cc1cn(C)c(=O)cc1-c1ccc2c(N[C@@](C)(CO)CCCC)nc(N)nc2c1 | class 1
2. CCCC[C@](C)(CO)Nc1nc(N)nc2cc(-c3cc(=O)[nH]cc3COC)cnc12 | class 0
3. CCCCN(C)Cc1c[nH]c(=O)cc1-c1cnc2c(N[C@@](C)(CO)CCCC)nc(N)nc2c1 | class 1
4. CCCC[C@](C)(CO)Nc1nc(N)nc2cc(-c3cc(=O)[nH]cc3CN(C)CCOC)cnc12 | class 0
5. CCCC[C@](C)(CO)Nc1nc(N)nc2cc(-c3cc(=O)n(C)cc3CN3CCCCC3)ccc12 | class 0
6. C=CCCN(C)Cc1c[nH]c(=O)cc1-c1ccc2c(N[C@@](C)(CO)CCCC)nc(N)nc2c1 | class 1
7. CCCCN(C)Cc1c[nH]c(=O)cc1-c1ccc2c(N[C@@](C)(CO)CCCC)nc(N)nc2c1 | class 1
8. CCCC[C@](C)(CO)Nc1nc(N)nc2cc(-c3cc(=O)[nH]cc3CN(C)CCOC)ccc12 | class 1

###

# pEC50 annotations
- experimentalTarget: hTLR8 (Homo sapiens)
- Sequence (Q9NR97 27-1041): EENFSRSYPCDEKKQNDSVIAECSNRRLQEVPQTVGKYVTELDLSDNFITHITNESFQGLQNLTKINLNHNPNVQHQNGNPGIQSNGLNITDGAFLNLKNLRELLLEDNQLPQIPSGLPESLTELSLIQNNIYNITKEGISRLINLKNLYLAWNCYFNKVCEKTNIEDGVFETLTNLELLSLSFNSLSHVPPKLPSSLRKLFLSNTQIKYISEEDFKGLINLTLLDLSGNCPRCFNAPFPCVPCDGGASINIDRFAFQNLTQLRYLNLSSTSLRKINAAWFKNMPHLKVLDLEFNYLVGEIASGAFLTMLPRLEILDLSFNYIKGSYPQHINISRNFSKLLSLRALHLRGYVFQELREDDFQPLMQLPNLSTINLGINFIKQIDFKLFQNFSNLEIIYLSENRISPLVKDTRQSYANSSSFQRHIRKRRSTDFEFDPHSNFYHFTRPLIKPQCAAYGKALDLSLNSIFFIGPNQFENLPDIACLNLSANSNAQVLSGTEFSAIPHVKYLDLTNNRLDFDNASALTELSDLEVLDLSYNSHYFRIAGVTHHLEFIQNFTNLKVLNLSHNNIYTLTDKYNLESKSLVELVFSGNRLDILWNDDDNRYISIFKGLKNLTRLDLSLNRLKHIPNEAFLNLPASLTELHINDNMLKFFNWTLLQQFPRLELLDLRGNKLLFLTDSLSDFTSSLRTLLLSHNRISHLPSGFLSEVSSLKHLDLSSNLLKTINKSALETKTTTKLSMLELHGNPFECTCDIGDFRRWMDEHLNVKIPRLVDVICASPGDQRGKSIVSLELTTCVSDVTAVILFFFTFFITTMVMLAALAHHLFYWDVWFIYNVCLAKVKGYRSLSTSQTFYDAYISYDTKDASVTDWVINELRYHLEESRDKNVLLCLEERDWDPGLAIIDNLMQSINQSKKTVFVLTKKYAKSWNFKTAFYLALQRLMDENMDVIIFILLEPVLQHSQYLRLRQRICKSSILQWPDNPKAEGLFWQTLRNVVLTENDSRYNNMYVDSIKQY
- protocolNotes: Agonistic activity on human TLR8 in HEK-Blue hTLR8 cells (QUANTI-Blue)
- runParameters: 24 h incubation, OD650, read-out: hTLR 8 EC50
pEC50: −log10 of the molar value.
metricName: pEC50

1. C=CCCN(C)Cc1c[nH]c(=O)cc1-c1ccc2c(N[C@@](C)(CO)CCCC)nc(N)nc2c1 | 7.10
2. CCCC[C@](C)(CO)Nc1nc(N)nc2cc(-c3cc(=O)n(C)cc3CN3CCCCC3)ccc12 | 7.38
3. CCCC[C@](C)(CO)Nc1nc(N)nc2cc(-c3cc(=O)[nH]cc3COC)cnc12 | 7.92
4. CCCCNCc1cn(C)c(=O)cc1-c1ccc2c(N[C@@](C)(CO)CCCC)nc(N)nc2c1 | 6.70
5. C=CCCOCc1c[nH]c(=O)cc1-c1cnc2c(N[C@@](C)(CO)CCCC)nc(N)nc2c1 | 6.45
6. CCCCN(CCCC)Cc1c[nH]c(=O)cc1-c1cnc2c(N[C@@](C)(CO)CCCC)nc(N)nc2c1 | 6.54
7. CCCCN(CCCC)Cc1c[nH]c(=O)cc1-c1ccc2c(N[C@@](C)(CO)CCCC)nc(N)nc2c1 | 6.40
8. CCCC[C@](C)(CO)Nc1nc(N)nc2cc(-c3cc(=O)[nH]cc3CN(C)CCOC)cnc12 | 7.47
9. C=CCCN(CCC=C)Cc1c[nH]c(=O)cc1-c1ccc2c(N[C@@](C)(CO)CCCC)nc(N)nc2c1 | 6.68
10. CCCC[C@](C)(CO)Nc1nc(N)nc2cc(-c3cc(=O)n(C)cc3CN(C)CCOC)ccc12 | 7.41
11. C=CCCN(Cc1c[nH]c(=O)cc1-c1cnc2c(N[C@@](C)(CO)CCCC)nc(N)nc2c1)C(C)C | 6.59
12. CCCC[C@](C)(CO)Nc1nc(N)nc2cc(-c3cc(=O)n(C)cc3CNCCOC)ccc12 | 6.38
13. C=CCCN(C)Cc1cn(C)c(=O)cc1-c1cnc2c(N[C@](C)(CCCC)CNC(=O)c3cnn(C)c3)nc(N)nc2c1 | 7.01
14. CCCC[C@](C)(CO)Nc1nc(N)nc2cc(-c3cc(=O)[nH]cc3CN3CCOCC3)cnc12 | 6.62
15. CCCCN(C)Cc1cn(C)c(=O)cc1-c1ccc2c(N[C@@](C)(CO)CCCC)nc(N)nc2c1 | 7.60
16. C#CCCN(C)Cc1cn(C)c(=O)cc1-c1cnc2c(N[C@@](C)(CO)CCCC)nc(N)nc2c1 | 5.41
